testedTarget: Hepatitis A virus cellular receptor 2 (Homo sapiens)
experimentalDetails: Displacement of FITC-labelled 5-(((8-Chloro-9-(3-methylpyridin-4-yl)-5-oxo-5,6-dihydro-[1,2,4]triazolo[1,5-c]quinazolin-2-yl)methyl)carbamoyl)-2-(6-hydroxy-3-oxo-3H-xanthen-9-yl)benzoic acid probe from human TIM-3 IgV domain (residues 22 to 130) expressed in Escherichia coli BL21 (DE3) by FPA competition assay

moleculeSmiles	IC50 / µM
Cc1nc2c3cc(-c4ccncc4C)c(Cl)cc3[nH]c(=O)n2n1	53

----------
testedTarget: Hepatitis A virus cellular receptor 2 (Homo sapiens, UniProt Q8TDQ0)
Sequence (Q8TDQ0 whole entry, the tested form may be a part): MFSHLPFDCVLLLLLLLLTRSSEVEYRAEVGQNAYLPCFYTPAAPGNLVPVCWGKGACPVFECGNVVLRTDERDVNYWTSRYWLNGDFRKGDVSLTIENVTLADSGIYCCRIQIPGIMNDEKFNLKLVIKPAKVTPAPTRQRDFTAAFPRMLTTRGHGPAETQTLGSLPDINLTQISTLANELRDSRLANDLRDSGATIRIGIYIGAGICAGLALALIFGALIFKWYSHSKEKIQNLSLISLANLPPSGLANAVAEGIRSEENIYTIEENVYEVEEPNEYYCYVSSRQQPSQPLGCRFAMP
pKd: −log10 of the molar value.
measuredParameter: pKd

compound	resultOperator	measValue
CN(C)CCn1c(=S)[nH]c2ccccc2c1=O	=	3.28
Sc1nc2cc(Cl)ccc2[nH]1	=	3.17
Cc1cccc(Nc2cc(=O)n(C)c(=O)n2C)c1	=	2.85
O=C1CC(c2ccccc2)c2cc3c(cc2N1)OCO3 (stereo not drawn)	<	2.70
Cc1ccc(Nc2ncnc3c2cnn3C)cc1	=	3.07
Cc1nc2c3cc(-c4ccncc4C)c(Cl)cc3[nH]c(=O)n2n1	=	5.00
Oc1nc2ccccc2c2nc(-c3ccccc3)nn12	<	2.70
Cc1cc(-c2nc3ncccc3o2)ccc1N	=	3.34
